- assay.notes: The drug is tested on the gut metagenome community of A-01 with ENA study accession number: PRJEB31790 for biotransformation under anaerobic condition. The drug concentrations were measured over 7 timepoints collected between 0 and 12 hours of incubation by liquid-chromatography-coupled mass spectrometry (LC–MS)
- Format: ADME
- Set-up: dose 5 uM, timepoint 0, 0.75, 1.5, 3, 6, 9, 12 hours
- conditions.used: 5 µM

structure.smiles	Bacterial Biotransformation
C[C@H]1C[C@@H]2[C@H]([C@@H](O)C[C@@]3(C)[C@H]2CC[C@]3(O)C(=O)CO)[C@@]2(C)C=CC(=O)C=C12	Compound metabolized
CO[C@H]1C[C@@H]2CC[C@@H](C)[C@@](O)(O2)C(=O)C(=O)N2CCCC[C@H]2C(=O)O[C@H]([C@H](C)C[C@@H]2CC[C@@H](OCCO)[C@H](OC)C2)CC(=O)[C@H](C)/C=C(\C)[C@@H](O)[C@@H](OC)C(=O)[C@H](C)C[C@H](C)/C=C/C=C/C=C/1C	Compound metabolized

---

- assay.notes: The drug is tested on the gut metagenome community of T-05 with ENA study accession number: PRJEB31790 for biotransformation under anaerobic condition. The drug concentrations were measured over 7 timepoints collected between 0 and 12 hours of incubation by liquid-chromatography-coupled mass spectrometry (LC–MS)
- Assay type: ADME
- Set-up: dose 5 uM, timepoint 0, 0.75, 1.5, 3, 6, 9, 12 hours
- conditions.used: 5 µM

compound	Bacterial Biotransformation
CCOc1nc2cccc(C(=O)O)c2n1Cc1ccc(-c2ccccc2-c2nnn[nH]2)cc1	Compound NOT metabolized
C[C@]12CCC(=O)C=C1CC[C@@H]1[C@@H]2[C@@H](O)C[C@@]2(C)[C@H]1CC[C@]2(O)C(=O)CO [HYDROCORTISONE]	Compound metabolized
COc1c(C)c2c(c(O)c1C/C=C(\C)CCC(=O)O)C(=O)OC2 [MYCOPHENOLIC ACID]	Compound metabolized
C[C@@H](NCCCc1cccc(C(F)(F)F)c1)c1cccc2ccccc12	Compound NOT metabolized
CNC(=C[N+](=O)[O-])NCCSCc1ccc(CN(C)C)o1 [RANITIDINE]	Compound NOT metabolized
CO[C@H]1C[C@@H]2CC[C@@H](C)[C@@](O)(O2)C(=O)C(=O)N2CCCC[C@H]2C(=O)O[C@H]([C@H](C)C[C@@H]2CC[C@@H](O)[C@H](OC)C2)CC(=O)[C@H](C)/C=C(\C)[C@@H](O)[C@@H](OC)C(=O)[C@H](C)C[C@H](C)/C=C/C=C/C=C/1C [SIROLIMUS]	Compound NOT metabolized
C[C@H]1C[C@H]2[C@@H]3CCC4=CC(=O)C=C[C@]4(C)[C@@]3(F)[C@@H](O)C[C@]2(C)[C@@]1(O)C(=O)CO [BETAMETHASONE]	Compound NOT metabolized
NS(=O)(=O)c1cc(C(=O)O)c(NCc2ccco2)cc1Cl [FUROSEMIDE]	Compound NOT metabolized
COc1c(C)c2c(c(O)c1C/C=C(\C)CCC(=O)OCCN1CCOCC1)C(=O)OC2 [MYCOPHENOLATE MOFETIL]	Compound metabolized
CO[C@H]1C[C@@H]2CC[C@@H](C)[C@@](O)(O2)C(=O)C(=O)N2CCCC[C@H]2C(=O)O[C@H]([C@H](C)C[C@@H]2CC[C@@H](OCCO)[C@H](OC)C2)CC(=O)[C@H](C)/C=C(\C)[C@@H](O)[C@@H](OC)C(=O)[C@H](C)C[C@H](C)/C=C/C=C/C=C/1C [EVEROLIMUS]	Compound NOT metabolized
C[C@H]1C[C@@H]2[C@H]([C@@H](O)C[C@@]3(C)[C@H]2CC[C@]3(O)C(=O)CO)[C@@]2(C)C=CC(=O)C=C12 [METHYLPREDNISOLONE]	Compound NOT metabolized
CCOC(=O)[C@H](CCc1ccccc1)N[C@@H](C)C(=O)N1[C@H](C(=O)O)C[C@@H]2CCC[C@@H]21	Compound NOT metabolized
CC(C)NCC(O)COc1ccc(CC(N)=O)cc1 (centres undefined) [ATENOLOL]	Compound NOT metabolized
CCC(C)(C)C(=O)O[C@H]1C[C@@H](C)C=C2C=C[C@H](C)[C@H](CC[C@@H]3C[C@@H](O)CC(=O)O3)[C@H]21 [SIMVASTATIN]	Compound NOT metabolized
Cn1cnc([N+](=O)[O-])c1Sc1ncnc2nc[nH]c12 [AZATHIOPRINE]	Compound metabolized
COc1ccc([C@@H]2Sc3ccccc3N(CCN(C)C)C(=O)[C@@H]2OC(C)=O)cc1 [DILTIAZEM]	Compound NOT metabolized
CN(Cc1cnc2nc(N)nc(N)c2n1)c1ccc(C(=O)N[C@@H](CCC(=O)O)C(=O)O)cc1 [METHOTREXATE]	Compound metabolized
C[C@]12C=CC(=O)C=C1CC[C@@H]1[C@@H]2C(=O)C[C@@]2(C)[C@H]1CC[C@]2(O)C(=O)CO [PREDNISONE]	Compound metabolized
CCOC(=O)C1=C(COCCN)NC(C)=C(C(=O)OC)C1c1ccccc1Cl (centres undefined) [AMLODIPINE]	Compound NOT metabolized
C=CC[C@@H]1/C=C(\C)C[C@H](C)C[C@H](OC)[C@H]2O[C@@](O)(C(=O)C(=O)N3CCCC[C@H]3C(=O)O[C@H](/C(C)=C/[C@@H]3CC[C@@H](O)[C@H](OC)C3)[C@H](C)[C@@H](O)CC1=O)[C@H](C)C[C@@H]2OC.O [TACROLIMUS]	Compound NOT metabolized
C[C@]12CCC(=O)C=C1CC[C@@H]1[C@@H]2C(=O)C[C@@]2(C)[C@H]1CC[C@]2(O)C(=O)CO [CORTISONE]	Compound metabolized
C[C@]12C=CC(=O)C=C1CC[C@@H]1[C@@H]2[C@@H](O)C[C@@]2(C)[C@H]1CC[C@]2(O)C(=O)CO [PREDNISOLONE]	Compound NOT metabolized
C[C@@H]1C[C@H]2[C@@H]3CCC4=CC(=O)C=C[C@]4(C)[C@@]3(F)[C@@H](O)C[C@]2(C)[C@@]1(O)C(=O)CO [DEXAMETHASONE]	Compound NOT metabolized
CCCC1O[C@@H]2C[C@H]3[C@@H]4CCC5=CC(=O)C=C[C@]5(C)[C@H]4[C@@H](O)C[C@]3(C)[C@]2(C(=O)CO)O1 (some centres undefined) [BUDESONIDE]	Compound NOT metabolized

---

- assay.notes: The drug is tested on the gut metagenome community of A-10 with ENA study accession number: PRJEB31790 for biotransformation under anaerobic condition. The drug concentrations were measured over 7 timepoints collected between 0 and 12 hours of incubation by liquid-chromatography-coupled mass spectrometry (LC–MS)
- Format: ADME
- Design: dose 5 uM, timepoint 0, 0.75, 1.5, 3, 6, 9, 12 hours
- conditions.used: 5 µM
measured.property: Bacterial Biotransformation

compound	measured.property	observed.value
CO[C@H]1C[C@@H]2CC[C@@H](C)[C@@](O)(O2)C(=O)C(=O)N2CCCC[C@H]2C(=O)O[C@H]([C@H](C)C[C@@H]2CC[C@@H](O)[C@H](OC)C2)CC(=O)[C@H](C)/C=C(\C)[C@@H](O)[C@@H](OC)C(=O)[C@H](C)C[C@H](C)/C=C/C=C/C=C/1C	Bacterial Biotransformation	Compound metabolized
C=CC[C@@H]1/C=C(\C)C[C@H](C)C[C@H](OC)[C@H]2O[C@@](O)(C(=O)C(=O)N3CCCC[C@H]3C(=O)O[C@H](/C(C)=C/[C@@H]3CC[C@@H](O)[C@H](OC)C3)[C@H](C)[C@@H](O)CC1=O)[C@H](C)C[C@@H]2OC.O	Bacterial Biotransformation	Compound metabolized
C[C@]12CCC(=O)C=C1CC[C@@H]1[C@@H]2[C@@H](O)C[C@@]2(C)[C@H]1CC[C@]2(O)C(=O)CO [HYDROCORTISONE]	Bacterial Biotransformation	Compound metabolized
COc1ccc([C@@H]2Sc3ccccc3N(CCN(C)C)C(=O)[C@@H]2OC(C)=O)cc1	Bacterial Biotransformation	Compound NOT metabolized
COc1c(C)c2c(c(O)c1C/C=C(\C)CCC(=O)O)C(=O)OC2	Bacterial Biotransformation	Compound NOT metabolized

---

- assay.notes: The drug is tested on the gut metagenome community of T-02 with ENA study accession number: PRJEB31790 for biotransformation under microaerobic condition. The drug concentrations were measured over 7 timepoints collected between 0 and 12 hours of incubation by liquid-chromatography-coupled mass spectrometry (LC–MS)
- Assay type: ADME
- Parameters: dose 5 uM, timepoint 0, 0.75, 1.5, 3, 6, 9, 12 hours
- conditions.used: 5 µM

compound	Bacterial Biotransformation
CO[C@H]1C[C@@H]2CC[C@@H](C)[C@@](O)(O2)C(=O)C(=O)N2CCCC[C@H]2C(=O)O[C@H]([C@H](C)C[C@@H]2CC[C@@H](O)[C@H](OC)C2)CC(=O)[C@H](C)/C=C(\C)[C@@H](O)[C@@H](OC)C(=O)[C@H](C)C[C@H](C)/C=C/C=C/C=C/1C	Compound metabolized
C=CC[C@@H]1/C=C(\C)C[C@H](C)C[C@H](OC)[C@H]2O[C@@](O)(C(=O)C(=O)N3CCCC[C@H]3C(=O)O[C@H](/C(C)=C/[C@@H]3CC[C@@H](O)[C@H](OC)C3)[C@H](C)[C@@H](O)CC1=O)[C@H](C)C[C@@H]2OC.O	Compound metabolized
CCOC(=O)[C@H](CCc1ccccc1)N[C@@H](C)C(=O)N1[C@H](C(=O)O)C[C@@H]2CCC[C@@H]21	Compound NOT metabolized
C[C@]12C=CC(=O)C=C1CC[C@@H]1[C@@H]2C(=O)C[C@@]2(C)[C@H]1CC[C@]2(O)C(=O)CO	Compound metabolized
COc1c(C)c2c(c(O)c1C/C=C(\C)CCC(=O)OCCN1CCOCC1)C(=O)OC2 [MYCOPHENOLATE MOFETIL]	Compound metabolized
Cn1cnc([N+](=O)[O-])c1Sc1ncnc2nc[nH]c12	Compound NOT metabolized
COc1ccc([C@@H]2Sc3ccccc3N(CCN(C)C)C(=O)[C@@H]2OC(C)=O)cc1	Compound metabolized
CCCC1O[C@@H]2C[C@H]3[C@@H]4CCC5=CC(=O)C=C[C@]5(C)[C@H]4[C@@H](O)C[C@]3(C)[C@]2(C(=O)CO)O1 (stereo not given in full) [BUDESONIDE]	Compound NOT metabolized
C[C@@H]1C[C@H]2[C@@H]3CCC4=CC(=O)C=C[C@]4(C)[C@@]3(F)[C@@H](O)C[C@]2(C)[C@@]1(O)C(=O)CO	Compound metabolized
C[C@H]1C[C@@H]2[C@H]([C@@H](O)C[C@@]3(C)[C@H]2CC[C@]3(O)C(=O)CO)[C@@]2(C)C=CC(=O)C=C12	Compound metabolized
